- System: Streptococcus pneumoniae
- assay.comment: microbe, parasite or virus in culture
- Format: functional
- assay.setup: ATCC 49619, 24 h
- Description: Antibacterial activity against Streptococcus pneumoniae ATCC 49619 after 24 hrs by macrobroth dilution method in the presence of bovine serum albumin
Reported MIC90 is given for each of the following compounds.
Kindly answer with a numeric value in µg/mL, unit omitted.

>  <line.notation>
Oc1cc(Cl)ccc1Oc1ccc(Cl)cc1Cl

>  <system.name>
Streptococcus pneumoniae

>  <value.units>
µg/mL

>  <MIC90>
256

$$$$

The compound listed as `CC(C)(C)CC(C)(C)c1ccc(OCCCCc2cn(C[C@H]3O[C@@H](O[C@@H]4[C@@H](O)[C@H](N)C[C@H](N)[C@H]4O[C@H]4O[C@H](CN)[C@@H](O)[C@H](O)[C@H]4N)[C@H](O)[C@@H]3O[C@H]3O[C@@H](CN)[C@@H](O)[C@H](O)[C@H]3N)nn2)c(Cc2ccc(Cl)cc2Cl)c1` has a reported MIC90 of 64

The compound listed as `Cc1cc(OCCCCc2cn(C[C@H]3O[C@@H](O[C@@H]4[C@@H](O)[C@H](N)C[C@H](N)[C@H]4O[C@H]4O[C@H](CN)[C@@H](O)[C@H](O)[C@H]4N)[C@H](O)[C@@H]3O[C@H]3O[C@@H](CN)[C@@H](O)[C@H](O)[C@H]3N)nn2)cc(C)c1Cl` has a reported MIC90 of 256

* * *

Reported MIC90 is given for each of the following compounds.
- Tested on: Escherichia coli
- assay.comment: microbe, parasite or virus in culture
- Type: functional
- assay.setup: isolate CAN-ICU 61714, 24 h
- Description: Antibacterial activity against Escherichia coli isolate CAN-ICU 61714 after 24 hrs by macrobroth dilution method
Kindly answer with a numeric value in µg/mL, unit omitted.

Check out these entries, answers already filled in.
>  <compound>
Oc1cc(Cl)ccc1Oc1ccc(Cl)cc1Cl [TRICLOSAN]

>  <system.name>
Escherichia coli

>  <MIC90 [µg/mL]>
1

$$$$
>  <compound>
NC[C@@H]1O[C@H](O[C@H]2[C@@H](O)[C@H](O[C@@H]3[C@@H](O)[C@H](N)C[C@H](N)[C@H]3O[C@H]3O[C@H](CN)[C@@H](O)[C@H](O)[C@H]3N)O[C@@H]2CO)[C@H](N)[C@@H](O)[C@@H]1O.O.O=S(=O)(O)O [NEOMYCIN TRISULFATE HYDRATE]

>  <system.name>
Escherichia coli

>  <MIC90 [µg/mL]>
1

$$$$

Consider now this further compound.
The compound listed as `CC(C)(C)CC(C)(C)c1ccc(OCCCCc2cn(C[C@H]3O[C@@H](O[C@@H]4[C@@H](O)[C@H](N)C[C@H](N)[C@H]4O[C@H]4O[C@H](CN)[C@@H](O)[C@H](O)[C@H]4N)[C@H](O)[C@@H]3O[C@H]3O[C@@H](CN)[C@@H](O)[C@H](O)[C@H]3N)nn2)c(Cc2ccc(Cl)cc2Cl)c1` has a reported MIC90 of 64

* * *

- Test system: Staphylococcus epidermidis
- assay.comment: microbe, parasite or virus in culture
- Assay type: functional
- assay.setup: Staphylococcus epidermidis, 81388, 24 h
- Description: Antibacterial activity against methicillin-susceptible Staphylococcus epidermidis 81388 after 24 hrs by macrobroth dilution method in the presence of bovine serum albumin
reported.endpoint: MIC90 (µg/mL)
Kindly answer with a numeric value in µg/mL, unit omitted.

>  <line.notation>
CC(C)(C)CC(C)(C)c1ccc(OCCCCc2cn(C[C@H]3O[C@@H](O[C@@H]4[C@@H](O)[C@H](N)C[C@H](N)[C@H]4O[C@H]4O[C@H](CN)[C@@H](O)[C@H](O)[C@H]4N)[C@H](O)[C@@H]3O[C@H]3O[C@@H](CN)[C@@H](O)[C@H](O)[C@H]3N)nn2)c(Cc2ccc(Cl)cc2Cl)c1

>  <measured.result>
4

$$$$

Consider now this further compound.
The compound listed as `Cc1cc(OCCCCc2cn(C[C@H]3O[C@@H](O[C@@H]4[C@@H](O)[C@H](N)C[C@H](N)[C@H]4O[C@H]4O[C@H](CN)[C@@H](O)[C@H](O)[C@H]4N)[C@H](O)[C@@H]3O[C@H]3O[C@@H](CN)[C@@H](O)[C@H](O)[C@H]3N)nn2)cc(C)c1Cl` has a reported MIC90 of 8

// provenance: ChEMBL document CHEMBL1949655
